system: OVCAR-3 ovarian; test: NCI tumour cell line growth inhibition, 48 h
property-label: TGI

>>> observed_value("CC(=O)NNc1nc(C)c(C(=O)/C=C/C=C/c2ccccc2)s1")
"> 100 µM"
>>> observed_value("CC[C@H](C)[C@H](NC(=O)c1ccccn1)C(=O)N(C)[C@H](C[C@@H](OC(C)=O)c1nc(C(=O)N[C@@H](Cc2ccccc2)C[C@H](C)C(=O)OC)cs1)C(C)C")
"40.7 µM"
>>> observed_value("O=C1Nc2ccccc2/C1=C\\c1c(-c2ccccc2)nc2ccccn12")
"> 100 µM"

For every item below, please supply its TGI.
1. Cc1ccc(-c2cc(-c3ccccc3)nc(N)n2)c(O)c1
2. CCC[CH2][Sn]1([CH2]CCC)[O]CC(CN2CCCCC2)[O]1 (stereo not given)

["> 100 µM", "0.821 µM"]

* * *

Would you mind telling me the reported TGI of each entry?
system: U251 CNS; assay: NCI tumour cell line growth inhibition, 48 h
Give bare numbers, in µM.

See these solved cases before continuing.
>>> observed_value("C[C@]12CC[C@@H]3c4cc(Br)c(O)c(Br)c4CC[C@H]3[C@@H]1CC(Br)C2=O (stereo not given in full)")
12.7
>>> observed_value("COC1=C(OC)C(=O)C(CCCCCCCCCC[P+](c2ccccc2)(c2ccccc2)c2ccccc2)=C(C)C1=O")
1.17
>>> observed_value("CCOc1cc(F)c([N+](=O)[O-])cc1[N+](=O)[O-]")
3.24

Reported TGI, compound CC(C)(C)c1ccc(O)c(CN(Cc2c(O)ccc3ccccc23)C2CCCCC2)c1 : ____
29.4

* * *

tested on: UACC-62 melanoma; experiment: NCI tumour cell line growth inhibition, 48 h; in the data active means GI50 below about 0.43 µM; inactive means the rest
Where a SMILES comes first, the peptide text is derived from it. [ ]: non-standard residue; d: D form. The star is where a group is joined. Dolaproine = CO[C@@H]([C@@H]1CCCN1)[C@@H](C)C(=O)O; Dil = CC[C@H](C)[C@H](NC)[C@@H](CC(=O)O)OC; X2 = C[C@@H](N*)[C@@H](O)c1ccccc1; NMeV = CN[C@H](C(=O)O)C(C)C
Answer with one of the outcomes given here: 1.0 for active, 0.0 for inactive

Reference set (3 entries):
>>> class_name("CC[N+](CC)=c1cc2oc3cc(N(C)C)ccc3nc-2cc1C")
0.0
>>> class_name("CC1=C(C(=O)Nc2ccc(F)c(Cl)c2)C(c2cccc(Cl)c2)NC(=S)N1 (stereo unspecified)")
0.0
>>> class_name("O=C1Nc2ccccc2/C1=C\\c1c(-c2ccccc2)nc2ccccn12")
0.0

Tell me the recorded outcome of this test for COc1cc(Nc2ccnc(NCCNc3ccnc4cc(Cl)ccc34)n2)cc(OC)c1 .
0.0

Tell me the recorded outcome of this test for OCCCCC#Cc1ccccc1C#Cc1ccccn1 .
0.0

Tell me the recorded outcome of this test for O=C(Nc1ccc2[nH]c3ccccc3c2c1)c1ccccc1Cl .
0.0

Tell me the recorded outcome of this test for COc1cccc2[nH]c3c4c(c5c(c3c12)C(=O)N(CN1CCN(C)CC1)C5=O)CCC4 .
0.0

Tell me the recorded outcome of this test for O=C(C[n+]1cccc2cc(Cl)ccc21)c1ccc2c(c1)CCCC2 .
0.0

Tell me the recorded outcome of this test for CC[C@H](C)[C@@H]([C@@H](CC(=O)N1CCC[C@H]1[C@H](OC)[C@@H](C)C(=O)N[C@H](C)[C@@H](O)c1ccccc1)OC)N(C)C(=O)[C@@H](NC(=O)[C@@H](NC)C(C)C)C(C)C (H-[NMeV]V[Dil][Dolaproine]-X2) .
1.0

Tell me the recorded outcome of this test for Cc1ccc(S(=O)(=O)c2ccccc2)cc1 .
0.0

Tell me the recorded outcome of this test for O=C(Nc1ncc(Cc2ccccc2)s1)c1sc2ccccc2c1Cl .
1.0

* * *

test system: MDA-MB-435; assay: NCI tumour cell line growth inhibition, 48 h
property-label: log10 TGI (log10 of the value in µM)
All values: base-10 log of TGI in µM.

See these solved cases before continuing.
>>> observed_value("CCCCC(CCCCCC(CCCC)C1NC(C)Cc2cc(OC)c(OC)cc21)C1NC(C)Cc2cc(OC)c(OC)cc21 (stereo not given)")
0.62
>>> observed_value("CCOc1cc(F)c([N+](=O)[O-])cc1[N+](=O)[O-]")
0.86
>>> observed_value("O=c1cc(-c2ccccc2)nc(-n2[nH]c3c(c2=O)CCCC3)[nH]1")
1.95
>>> observed_value("C#Cc1cc(-c2nc3ccccc3s2)ccc1N")
1.61

Could you now look at the following compound, please?
Reported log10 TGI, compound c1ccc2c(c1)c1c(n2CCOCCCN2CCCCC2)CCCC1 : ____
1.53

* * *

Would you mind telling me the reported GI50 of each entry?
system: HOP-62 NSCLC; assay: NCI tumour cell line growth inhibition, 48 h

See these solved cases before continuing.
>>> observed_value("Oc1c(Br)cc(Br)c2ccc(Cn3cc(-c4ccc(C(F)(F)F)cc4)nn3)nc12")
"15600 nM"
>>> observed_value("O=C(c1ccc(Cl)c(Cl)c1)N1CCN(C(=O)c2ccc(Cl)c(Cl)c2)C1=S")
"17600 nM"
>>> observed_value("CN[C@@H](C)C(=O)N[C@H]1CCS[C@H]2CC(C)(C)[C@@H](C(=O)N[C@H]3c4ccccc4C[C@H]3OCC#CC#CCO[C@@H]3Cc4ccccc4[C@@H]3NC(=O)[C@H]3N4C(=O)[C@@H](NC(=O)[C@H](C)NC)CCS[C@H]4CC3(C)C)N2C1=O")
"3720 nM"
>>> observed_value("Nc1n[nH]c2cccc(C#Cc3cccc(NC(=O)c4ccc(N5CCOCC5)c(C(F)(F)F)c4)c3)c12")
"1490 nM"
>>> observed_value("CCCCC(CCCCCC(CCCC)C1NC(C)Cc2cc(OC)c(OC)cc21)C1NC(C)Cc2cc(OC)c(OC)cc21 (stereo not drawn)")
"1470 nM"

For every item below, please supply its GI50.
1. CCC[CH2][Sn]1([CH2]CCC)[O]CC(CN2CCCCC2)[O]1 (stereo not drawn)
2. O=C(C[n+]1cccc2cc(Cl)ccc21)c1ccc2c(c1)CCCC2

["1610 nM", "1650 nM"]

Reported GI50, compound O=C1Nc2ccccc2/C1=C\c1c(-c2ccccc2)nc2ccccn12 : ____
2700 nM

* * *

system: MDA-MB-231 breast; assay: NCI tumour cell line growth inhibition, 48 h
property-label: TGI

See these solved cases before continuing.
>>> observed_value("Nc1ccc(S(=O)(=O)c2ccc(N)cc2)cc1")
"> 100 µM"
>>> observed_value("O=c1n(-c2ccc(Cl)c(Cl)c2)c(=O)n(-c2ccc(Cl)c(Cl)c2)c(=O)n1-c1ccc(Cl)c(Cl)c1")
"4.32 µM"
>>> observed_value("N#CC1(Nc2ccc(Br)cc2)CCCC1")
"> 100 µM"
>>> observed_value("Clc1ccc2c(N3CCN(c4ccnc(NC5CCCCC5)n4)CC3)ccnc2c1")
"3.97 µM"

Could you now look at the following compound, please?
Reported TGI, compound CN(C)CCn1c(=O)c2ccc(NCCCN(C)CCCNc3ccc4c(=O)n(CCN(C)C)c(=O)n5c6ccccc6c(=O)c3c45)c3c(=O)c4ccccc4n(c1=O)c23 : ____
0.54 µM

* * *

tested on: HOP-18 NSCLC; test: NCI tumour cell line growth inhibition, 48 h
Would you mind telling me the reported TGI of each entry?
One number for each entry, in µM.

>>> observed_value("Cc1cc(C(=O)NCCN(C)C)c2nc3ccccc3cc2c1")
7.16

Could you now look at the following molecule, please?
Reported TGI, molecule O=C(CC1(O)C(=O)Nc2c(Cl)cc(Cl)cc21)c1ccc(Br)cc1 (stereo not given) : ____
30.4

* * *

system: PC-3 prostate; experiment: NCI tumour cell line growth inhibition, 48 h; in the data active = GI50 below about 0.43 µM; inactive = the rest
Answer with one of the outcomes given here: active, inactive

Reference set (5 entries):
>>> class_name("C=CCN1C(=O)c2cccc3c(N4CCOCC4)ccc(c23)C1=O")
"active"
>>> class_name("COc1cccc2[nH]c3c4c(c5c(c3c12)C(=O)N(CN1CCN(C)CC1)C5=O)CCC4")
"inactive"
>>> class_name("Cc1ccc(S(=O)(=O)c2ccccc2)cc1")
"inactive"
>>> class_name("CNC(=O)c1ccccc1Nc1cc(Nc2ccc(N3CCOCC3)cc2OC)ncc1C(F)(F)F")
"inactive"
>>> class_name("C[CH2][Sn]([CH2]C)([O]C(=O)c1ccccc1F)[O]C(=O)c1ccccc1F")
"inactive"

Lab note: next molecule to report on.
Tell me the recorded outcome of this test for Nc1n[nH]c2cccc(C#Cc3cccc(NC(=O)c4ccc(N5CCOCC5)c(C(F)(F)F)c4)c3)c12 .
inactive

* * *

tested on: SF-268 CNS; experiment: NCI tumour cell line growth inhibition, 48 h
property-label: TGI

See these solved cases before continuing.
>>> observed_value("CC(C)=CCNc1ncnc2c1c(C#N)cn2C1OC(CO)C(O)C1O (configuration not stated)")
"> 100 µM"
>>> observed_value("Cn1c(=O)c2c(nc3n(Cc4ccccc4)c(=O)c(Br)cn23)n(C)c1=O")
"> 100 µM"
>>> observed_value("Cc1ccc(C(=O)N/N=C(\\N=Nc2cccc([N+](=O)[O-])c2)c2ccc(N(C)C)cc2)cc1")
"> 100 µM"
>>> observed_value("NC1=NC(=O)[C@H](Cc2c[nH]c3ccccc23)N1C(=O)OCc1ccccc1")
"> 100 µM"
>>> observed_value("Cc1cc(OCC(=O)O)c(Cl)cc1Cl")
"> 100 µM"
>>> observed_value("CN(C)CCCNc1ccnc2cccc([N+](=O)[O-])c12")
"47.7 µM"
>>> observed_value("O=c1cc(-c2ccc3ccccc3c2)[nH]c2ncc(Cl)cc12")
"34.4 µM"
>>> observed_value("O=c1cc(-c2ccccc2)nc(-n2[nH]c3c(c2=O)CCCC3)[nH]1")
"> 100 µM"
>>> observed_value("CCOC(=O)CC[C@H](NC(=O)c1[nH]cnc1/N=N/N(C)C)C(=O)OCC")
"> 100 µM"
>>> observed_value("COc1ccc(C(C)c2cc3c(cc2O)OCO3)cc1 (configuration not stated)")
"32.5 µM"

For every item below, please supply its TGI.
1. O=C(Nc1ncc(Cc2ccccc2)s1)c1sc2ccccc2c1Cl
2. CNC(=O)c1ccccc1Nc1cc(Nc2ccc(N3CCOCC3)cc2OC)ncc1C(F)(F)F
3. CCCCCCc1cc2c(C)c(C)c(=O)oc2cc1OCCCOc1cc2oc(=O)c(C)c(C)c2cc1CCCCCC
4. O=C(c1ccc(Cl)cc1)N(C(=S)OC12CC3CC(CC(C3)C1)C2)c1ccccc1
5. CCn1c(O)c(C=Nc2ccccc2)s/c1=N/Nc1ncc(CC(=O)Nc2ccccc2C)s1

1: > 100 µM; 2: 80.9 µM; 3: > 100 µM; 4: > 100 µM; 5: > 100 µM

For every item below, please supply its TGI.
1. Cc1ccccc1OC(C)C(=O)NN1C(=O)CC(=O)NC1=S (configuration not stated)
2. O=C(/C=C/c1ccc2ccccc2c1)NCc1ccc(C(=O)NCc2ccccc2)cc1
3. C[C@H](C(=O)C12CC3CC(CC(C3)C1)C2)[C@H](O)c1ccccc1
4. C[CH2][Sn]([CH2]C)([O]C(=O)c1ccccc1F)[O]C(=O)c1ccccc1F
5. ClCc1ccccc1Cn1cnc2c(Cl)nc(Cl)nc21
6. Clc1ccc(COc2ccccc2/C=N/c2c(-c3ccco3)nc3ccccn23)c(Cl)c1

["> 100 µM", "> 100 µM", "30.2 µM", "50.8 µM", "0.556 µM", "> 100 µM"]

Reported TGI, compound C#Cc1cc(-c2nc3ccccc3s2)ccc1N : ____
> 100 µM
